Exercise: for every item that follows, state its recorded activation.
# assayed_system: Nuclear receptor ROR-alpha (Homo sapiens)
# assay_text: activators of orphan receptor RORA, primary screen, cell-based, luminescence (AID 560);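 note: 0% = DMSO-treated RORA cells and 100% = added signal equal to DMSO minus mock-transfected cells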
# test_settings: CHO-K1 Gal4-RORA LBD luciferase reporter, at 10 µM, hits give high values, percent increase over mock-subtracted basal signal
The campaign covered roughly 65,000 compounds. About 980 (1.5%) were called active. Only a selection was taken, and actives are over-represented in it overall.
One number for each entry, in %.

Example entries and their recorded answers appear below.
[
  {
    "molecule": "CCn1cc(NC(=O)Nc2ccc(OC)c(OC)c2)c(C(N)=O)n1",
    "assayed_system": "Nuclear receptor ROR-alpha (Homo sapiens)",
    "activation (%)": 4.9
  },
  {
    "molecule": "Cc1ccc(-n2c(SCC(=O)Nc3ccc4c(c3)OCO4)nnc2-c2ccoc2C)cc1",
    "assayed_system": "Nuclear receptor ROR-alpha (Homo sapiens)",
    "activation (%)": -1.7
  },
  {
    "molecule": "COC(=O)c1cccc(NC(=O)CN2CCC(NC(=O)c3cc(OC)c(OC)c(OC)c3)CC2)c1",
    "assayed_system": "Nuclear receptor ROR-alpha (Homo sapiens)",
    "activation (%)": 17.2
  },
  {
    "molecule": "O=C(c1cccs1)N1CCN(C(=O)N2CCOCC2)CC1",
    "assayed_system": "Nuclear receptor ROR-alpha (Homo sapiens)",
    "activation (%)": 8.8
  },
  {
    "molecule": "Cc1ccsc1C(=O)OCC(=O)c1cc(C)n(CC2CCCO2)c1C (stereo unspecified)",
    "assayed_system": "Nuclear receptor ROR-alpha (Homo sapiens)",
    "activation (%)": -85.1
  }
]

Quick request: activation for each listed item, please.
1. O=C(CS(=O)(=O)Cc1ccccc1)NCC1CCCO1 (stereo unspecified)
2. CC(=NCC1CCCO1)c1c(O)[nH]c(=O)[nH]c1=O (stereo unspecified)
3. O=C1C(C=NCC2CCCO2)=C(O)c2ccccc21 (stereo unspecified)
4. Cn1c(=O)n(C)c2cc(C(=O)Nc3ccc4c(c3)OCO4)ccc21
5. CC1CCN(c2oc(-c3ccccc3F)nc2C#N)CC1
6. Cc1c(NC(=O)c2coc(=O)c(Br)c2)c(=O)n(-c2ccccc2)n1C

Return:
11.4
2.9
48.7
19.1
29
-0.3

----------
# assayed_system: Nuclear receptor ROR-alpha (Homo sapiens)
# assay_text: activators of orphan receptor RORA, primary screen, cell-based, luminescence (AID 560)
# test_settings: CHO-K1 Gal4-RORA LBD luciferase reporter, at 10 µM, percent increase over mock-subtracted basal signal
Among all 65,000 compounds or so, about 980 (1.5%) were called active.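 The calls were made as follows: active = activation above the mean of all tested compounds plus 3 SD (cut at about 49% in these data); inactive = the rest.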 Many of the other results were omitted from the sample, so actives are more common in it than they were.
Hello, when you answer, please use one of the following outcomes: active, inactive

[
  {
    "compound": "Cc1cc(C)c2c(c1)cc(C)c1nnc(SCC(=O)Nc3cc(C)on3)n12",
    "assayed_system": "Nuclear receptor ROR-alpha (Homo sapiens)",
    "assigned_label": "inactive"
  },
  {
    "compound": "O=C(Nc1nncs1)c1ccccc1NS(=O)(=O)c1cccs1",
    "assayed_system": "Nuclear receptor ROR-alpha (Homo sapiens)",
    "assigned_label": "inactive"
  },
  {
    "compound": "CCN1C(=O)/C(=C\\N2CCN(c3ccccc3)CC2)SC1=S",
    "assayed_system": "Nuclear receptor ROR-alpha (Homo sapiens)",
    "assigned_label": "inactive"
  }
]

Enquiry: Check the results log: what was the call for Cc1cccc(NC(=O)c2ccccc2NC(=O)C(C)(C)C)n1 ?
Return: inactive

Enquiry: Check the results log: what was the call for O=C(Nc1ccc(Oc2ccccc2)cc1)c1ccco1 ?
Return: inactive

Enquiry: Check the results log: what was the call for O=C(CN1CCOCC1)N1CCCc2c1c(=O)oc1ccc(OCc3ccccc3)cc21 ?
Return: inactive

Enquiry: Check the results log: what was the call for O=C(c1ccco1)N(Cc1nc2ccccc2c(=O)[nH]1)C1CCCC1 ?
Return: inactive

Enquiry: Check the results log: what was the call for CC(=O)OC(C(=O)NC1CCCCC1)c1ccccc1 (stereo not given) ?
Return: inactive

Enquiry: Check the results log: what was the call for Cn1c(=NC(=O)c2ccco2)sc2cccc(F)c21 ?
Return: active

Enquiry: Check the results log: what was the call for CCOC(=O)c1cnc(SCC(=O)NCc2ccco2)nc1N ?
Return: inactive

Enquiry: Check the results log: what was the call for CCCCOc1ccc(NC(=O)CSCC(=O)OCC)cc1 ?
Return: inactive

Enquiry: Check the results log: what was the call for COC(=O)c1c(NC(=O)c2cccs2)sc2c1CCCC2 ?
Return: inactive

Enquiry: Check the results log: what was the call for O=S(=O)(NCc1ccccn1)c1ccc(Br)s1 ?
Return: inactive

----------
# assayed_system: Nuclear receptor ROR-alpha (Homo sapiens) (UniProt P35398)
# Sequence (P35398 whole entry, looked up): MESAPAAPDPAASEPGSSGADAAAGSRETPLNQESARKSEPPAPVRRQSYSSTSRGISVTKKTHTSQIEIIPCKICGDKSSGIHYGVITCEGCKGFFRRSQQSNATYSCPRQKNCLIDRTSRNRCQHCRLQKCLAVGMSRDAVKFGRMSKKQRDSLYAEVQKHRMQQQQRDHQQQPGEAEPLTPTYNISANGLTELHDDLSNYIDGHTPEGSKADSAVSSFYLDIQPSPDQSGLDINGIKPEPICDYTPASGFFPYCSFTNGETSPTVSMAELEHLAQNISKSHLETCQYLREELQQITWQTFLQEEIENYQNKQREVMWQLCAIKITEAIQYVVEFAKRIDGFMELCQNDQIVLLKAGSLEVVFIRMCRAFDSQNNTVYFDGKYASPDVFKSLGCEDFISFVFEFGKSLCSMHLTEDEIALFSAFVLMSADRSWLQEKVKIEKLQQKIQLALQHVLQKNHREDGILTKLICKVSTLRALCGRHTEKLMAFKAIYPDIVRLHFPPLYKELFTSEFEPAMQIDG
# assay_text: activators of orphan receptor RORA, primary screen, cell-based, luminescence (AID 560);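 note: 0% = DMSO-treated RORA cells and 100% = added signal equal to DMSO minus mock-transfected cells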
# test_settings: CHO-K1 Gal4-RORA LBD luciferase reporter, at 10 µM, hits give high values, percent increase over mock-subtracted basal signal
Among all 65,000 compounds or so, about 980 (1.5%) were called active. The entries come from a sample that favours actives as a whole.
value_kind: activation (%)
One number for each entry, in %.

Example entries and their recorded answers appear below.
[
  {
    "molecule": "COc1ccccc1-c1cc(C(=O)N2CCCCC2)no1",
    "assayed_system": "Nuclear receptor ROR-alpha (Homo sapiens) (UniProt P35398)",
    "activation, %": 56.5
  },
  {
    "molecule": "Cc1cc(NC(=O)c2cc(-c3cccs3)on2)nn1Cc1ccc(Cl)cc1",
    "assayed_system": "Nuclear receptor ROR-alpha (Homo sapiens) (UniProt P35398)",
    "activation, %": 27.5
  },
  {
    "molecule": "COc1ccc(C2C(C(=O)Nc3ccccc3OC)=C(C)Nc3nnnn32)c(OC)c1 (configuration not stated)",
    "assayed_system": "Nuclear receptor ROR-alpha (Homo sapiens) (UniProt P35398)",
    "activation, %": 7.2
  },
  {
    "molecule": "COc1ccc(CCNC(=O)CN2CCC(n3nnc4cc(F)ccc43)CC2)cc1OC",
    "assayed_system": "Nuclear receptor ROR-alpha (Homo sapiens) (UniProt P35398)",
    "activation, %": -11.2
  },
  {
    "molecule": "Cc1ccc(NC(=O)CN2CCC3(O)CCCCC3C2c2ccc3c(c2)OCO3)c(C)c1 (configuration not stated)",
    "assayed_system": "Nuclear receptor ROR-alpha (Homo sapiens) (UniProt P35398)",
    "activation, %": 11.9
  },
  {
    "molecule": "CCOc1ccccc1NC(=O)Nc1cc(OC)ccc1OC",
    "assayed_system": "Nuclear receptor ROR-alpha (Homo sapiens) (UniProt P35398)",
    "activation, %": -19.1
  }
]

Quick request: activation for each listed item, please.
1. COc1ccc(OCCCON2C(=O)c3ccccc3C2=O)cc1
2. COc1ccc(C)c2sc(=NC(=O)c3ccc(C#N)cc3)n(C)c12
3. O=C(NCCCNC(=O)NC1CCCCC1)NC1CCCCC1
4. COCCCNC(=O)Cn1cc(C(=O)C2CC2)c2ccccc21

Return:
1: -11.1; 2: 84.6; 3: -10.6; 4: 7.7

Quick request: activation for each listed item, please.
1. O=C(CSCc1cccs1)N1CCCC1
2. O=C(c1cc(-c2cccs2)on1)N1CCCCC1

Return:
1. 22.9
2. 63.4

----------
# assayed_system: Nuclear receptor ROR-alpha (Homo sapiens) (UniProt P35398)
# assay_text: activators of orphan receptor RORA, primary screen, cell-based, luminescence (AID 560);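 note: 0% = DMSO-treated RORA cells and 100% = added signal equal to DMSO minus mock-transfected cells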
# test_settings: CHO-K1 Gal4-RORA LBD luciferase reporter, at 10 µM, percent increase over mock-subtracted basal signal
Among all 65,000 compounds or so, about 980 (1.5%) were called active.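 Rule for the calls: active = activation above the mean of all tested compounds plus 3 SD (cut at about 49% in these data); inactive = the rest.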 The entries come from a sample that favours actives as a whole.
Hello, when you answer, please use one of the following outcomes: y = active, n = inactive

[
  {
    "compound": "COc1ccc2oc(=O)c(C(=O)N3CCCc4ccccc43)cc2c1",
    "assigned_label": "n"
  }
]

Enquiry: Check the results log: what was the call for O=C(Nc1ccc(Cl)cn1)Nc1cccs1 ?
Return: n

Enquiry: Check the results log: what was the call for COc1cccc(C(=O)c2cc3ccc(O)cc3oc2=O)c1 ?
Return: n

Enquiry: Check the results log: what was the call for O=C(NCCN1CCOCC1)[C@H](Cc1ccccc1)N1C(=O)c2ccccc2C1=O ?
Return: n

Enquiry: Check the results log: what was the call for CCN(C(=O)CSc1ncn[nH]1)c1cccc2ccccc12 ?
Return: n

Enquiry: Check the results log: what was the call for CC(=O)N1CC2(C)CN(C(C)=O)CC(C)(C1)C2=O ?
Return: n

----------
Exercise: for every item that follows, state its recorded activation.
# assayed_system: Nuclear receptor ROR-alpha (Homo sapiens) (UniProt P35398)
# assay_text: activators of orphan receptor RORA, primary screen, cell-based, luminescence (AID 560);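 note: 0% = DMSO-treated RORA cells and 100% = added signal equal to DMSO minus mock-transfected cells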
# test_settings: CHO-K1 Gal4-RORA LBD luciferase reporter, at 10 µM, hits give high values, percent increase over mock-subtracted basal signal
The campaign covered roughly 65,000 compounds. About 980 (1.5%) were called active. The entries come from a sample that favours actives as a whole.
Give bare numbers, in %.

Example entries and their recorded answers appear below.
[
  {
    "compound": "O=C(Nc1ccccc1F)c1cc(S(=O)(=O)N2CCCCC2)cs1",
    "value_kind": "activation",
    "observed": 0.6
  },
  {
    "compound": "O=C(NC12CC3CC(CC(C3)C1)C2)N1CCCC(CO)C1 (stereo not given)",
    "value_kind": "activation",
    "observed": -9.5
  },
  {
    "compound": "CCOC(=O)c1nc(-c2ccc3c(c2)OCO3)[nH]c1C",
    "value_kind": "activation",
    "observed": 66.7
  },
  {
    "compound": "COc1cccc(CNC(=O)C2CCN(S(=O)(=O)c3cccc4cccnc34)CC2)c1",
    "value_kind": "activation",
    "observed": -6.7
  },
  {
    "compound": "CC(=O)N1CCN(c2ccc(NCc3ccc(C(C)C)cc3)cc2)CC1",
    "value_kind": "activation",
    "observed": -17.3
  }
]

Quick request: activation for each listed item, please.
1. COCc1nc2ccccc2n1Cc1ccccc1Br
2. CC(C)C(c1nnnn1CCc1ccccc1)N1CCN(C(=O)c2ccco2)CC1 (stereo not given)
3. CC1CCc2sc3nc(N4CCN(CCO)CC4)n4ncnc4c3c2C1 (stereo not given)
4. CCOC(=O)c1c(C)[nH]c(C(=O)COc2ccc3c(c2)OCO3)c1C
5. O=C(CN1C(=O)C2C3C=CC(C3)C2C1=O)NCCc1ccccc1Cl (stereo not given)

Return:
[-6.2, -9, 12.3, 28.3, 0.8]

Source of measurements: PubChem BioAssay AID560
